- System: HCT-116
- procedureText: Growth inhibition of human HCT116 cells after 48 hrs by MTS assay
- Assay type: functional
- assayContext: HCT-116, 48 h
testReadout: GI50 (µM)

Worked cases, GI50 given:
{"molecule": "COc1cc(/C=C/C(=O)/C=C/c2cccc(OC(c3ccccc3)(c3ccccc3)c3ccccc3)c2)cc(OC)c1OC", "studySystem": "HCT-116", "displayUnit": "µM", "GI50": 8.5}
{"molecule": "COc1cc(/C=C/C(=O)/C=C/c2cccc(O)c2)cc(OC)c1OC", "studySystem": "HCT-116", "displayUnit": "µM", "GI50": 0.9}
{"molecule": "COc1cccc(/C=C/C(=O)/C=C/c2cccc(OC)c2OC)c1OC", "studySystem": "HCT-116", "displayUnit": "µM", "GI50": 1.3}
{"molecule": "COc1cccc(/C=C/C(=O)/C=C/c2cc(OC)c(OC)c(OC)c2)c1", "studySystem": "HCT-116", "displayUnit": "µM", "GI50": 6.9}

P: COc1cc(/C=C/C(=O)/C=C/c2cccc(Cl)c2)cc(OC)c1OC
Q: COc1cc(/C=C/C(=O)/C=C/c2cc(OC)c(OCc3cn(Cc4ccc(OC5CCCCO5)cc4)nn3)c(OC)c2)cc(OC)c1OC (stereo unspecified)
Task: Return label of the item with the larger GI50. Candidates: P , Q . // caller expects the label of the chosen entry
Output: P
(P: 17 µM, Q: 0.3 µM)

---

- Tested on: HCT-116
- procedureText: Growth inhibition of human HCT116 cells after 48 hrs by MTS assay
- Assay type: functional
- assayContext: HCT-116, 48 h
testReadout: GI50 (nM)

{"molecule": "COc1ccccc1/C=C/C(=O)/C=C/c1ccccc1OC", "GI50, nM": 4000}
{"molecule": "COc1ccc(/C=C/C(=O)/C=C/c2cc(OC)c(OC)c(OC)c2)cc1OC", "GI50, nM": 400}
{"molecule": "COCOc1c(OC)cc(/C=C/C(=O)/C=C/c2cc(OC)c(OCOC)c(OC)c2)cc1OC", "GI50, nM": 300}
{"molecule": "COc1cc(/C=C/C(=O)/C=C/c2cc(OC)c(OC)c(OC)c2)cc(OC)c1O", "GI50, nM": 800}
{"molecule": "COc1cc(OC)c(OC)cc1/C=C/C(=O)/C=C/c1cc(OC)c(OC)c(OC)c1", "GI50, nM": 3300}

a: COc1cccc(OC)c1/C=C/C(=O)/C=C/c1c(OC)cccc1OC
b: COc1cc(/C=C/C(=O)/C=C/c2cc(OC)c(OCc3cn(CCCCCCCCCOC(=O)CCC4=[N+]5C(=Cc6c(C)cc(C)n6[B-]5(F)F)C=C4)nn3)c(OC)c2)cc(OC)c1OC
c: C#CCOc1c(OC)cc(/C=C/C(=O)/C=C/c2cc(OC)c(OC)c(OC)c2)cc1OC
d: C#CCOc1c(OC)cc(/C=C/C(=O)/C=C/c2cc(OC)c(OCC#C)c(OC)c2)cc1OC
Task: Hello, I need these entries ordered by GI50, highest reading first. Thanks! Show the ranking through the labels, in the order asked for.
Output: b, a, c, d
(b: 15000 nM, a: 9000 nM, c: 1800 nM, d: 300 nM)

A: COc1cc(/C=C/C(=O)/C=C/c2cc(OC)c(OCCN=[N+]=[N-])c(OC)c2)cc(OC)c1OCCN=[N+]=[N-]
B: C#CCOc1c(OC)cc(/C=C/C(=O)/C=C/c2cc(OC)c(OCOC)c(OC)c2)cc1OC
C: COCOc1cccc(/C=C/C(=O)/C=C/c2cc(OC)c(OC)c(OC)c2)c1
Task: Sequence the entries by GI50, beginning with the highest number. // format: requested-order list of labels
Output: A, C, B
